- System: HepG2
- assayRemarks: Antiproliferative activity against human HepG2 cells assessed as reduction in cell viability measured after 72 hrs by MTT assay
- Format: functional, cell-based
- measurementConditions: HepG2, 72 h
reportedMetric: pIC50
Please keep in mind that pIC50 is minus log10 of the molar concentration; only the number is needed.

Looking up `Cc1cc2c(o1)-c1ccccc1C(=O)C2=O` , I found its pIC50 recorded as 5.56

Looking up `Cc1coc2c1C(=O)C(=O)c1cc(C(C)C)ccc1-2` , I found its pIC50 recorded as 5.49

Looking up `COc1cccc2c1-c1occ(C)c1C(=O)C2=O` , I found its pIC50 recorded as 5.42

Looking up `Cc1cc2c(o1)-c1ccc3c(c1C(=O)C2=O)CCCC3(C)C` , I found its pIC50 recorded as 5.91

Looking up `Cc1coc2c1C(=O)C(=O)c1cc(Cl)ccc1-2` , I found its pIC50 recorded as 5.89

Looking up `Cc1coc2c1C(=O)C(=O)c1ccccc1-2` , I found its pIC50 recorded as 5.69

* * *

- assayRemarks: Metabolic stability in human liver microsomes assessed as degradation half life
- Format: ADME, Microsome
- measurementConditions: liver microsomes
reportedMetric: half-life (min)
All answers are understood in min, so give the number only.

Looking up Cc1coc2c1C(=O)C(=O)c1c-2ccc2c1CCCC2(C)C [TANSHINONE IIA] , I found its half-life recorded as 10

* * *

- System: HepG2
- assayRemarks: Antiproliferative activity against human HepG2 cells assessed as reduction in cell viability measured after 72 hrs by MTT assay
- Type: functional, cell-based
- measurementConditions: HepG2, 72 h
reportedMetric: IC50

Form field, IC50 with HepG2, item `COc1ccc2c(c1)C(=O)C(=O)c1cc(C)oc1-2` : 3.48 µM

Form field, IC50 with HepG2, item `COc1cccc2c1-c1oc(C)cc1C(=O)C2=O` : 4.75 µM

Further cases:
Form field, IC50 with HepG2, item `Cc1cc2c(o1)-c1c(O)cccc1C(=O)C2=O` : > 5 µM

* * *

- assayRemarks: Intrinsic clearance in human liver microsome
- Type: ADME, microsomes
- measurementConditions: liver microsomes, read-out: CLH
reportedMetric: microsomal CLint

Looking up Cc1coc2c1C(=O)C(=O)c1c-2ccc2c1CCCC2(C)C [TANSHINONE IIA] , I found its microsomal CLint recorded as 45 µL/min/mg

* * *

- assayRemarks: Kinetic solubility of the compound at pH 6.5 by nephelometry
- Assay type: physicochemical
- measurementConditions: buffer, read-out: Kinetic_solubility
Measured solubility kinetic, listed per entry.

Looking up `COc1ccc2c(c1)-c1occ(C)c1C(=O)C2=O` , I found its solubility kinetic recorded as 405 µg/mL

Further cases:
Looking up `Cc1coc2c1C(=O)C(=O)c1c-2ccc2c1CCCC2(C)C` , I found its solubility kinetic recorded as < 5 µg/mL

* * *

- Tested on: U-937
- assayRemarks: Antiproliferative activity against human U-937 cells assessed as reduction in cell viability measured after 72 hrs by MTT assay
- Format: functional, cell-based
- measurementConditions: U-937, 72 h
pIC50: −log10 of the molar value.
reportedMetric: pIC50

Looking up `COc1ccc2c(c1)-c1occ(C)c1C(=O)C2=O` , I found its pIC50 recorded as 5.56

Looking up `Cc1coc2c1C(=O)C(=O)c1cccc(O)c1-2` , I found its pIC50 recorded as < 5.30

Looking up `Cc1coc2c1C(=O)C(=O)c1c-2ccc2c1CCCC2(C)C` , I found its pIC50 recorded as < 5.30

* * *

Measured pIC50, listed per entry.
- System: U-937
- assayRemarks: Antiproliferative activity against human U-937 cells assessed as reduction in cell viability measured after 72 hrs by MTT assay
- Assay type: functional, cell-based
- measurementConditions: U-937, 72 h
Please keep in mind that pIC50 is minus log10 of the molar concentration; only the number is needed.

Form field, pIC50 with U-937, item `COc1ccc2c(c1)C(=O)C(=O)c1cc(C)oc1-2` : 5.47

Form field, pIC50 with U-937, item `Cc1cc2c(o1)-c1ccccc1C(=O)C2=O` : 5.80

Form field, pIC50 with U-937, item `Cc1coc2c1C(=O)C(=O)c1cc(Cl)ccc1-2` : 5.60

Form field, pIC50 with U-937, item `Cc1cc2c(o1)-c1ccc3c(c1C(=O)C2=O)CCCC3(C)C` : 5.57

Form field, pIC50 with U-937, item `COc1ccc2c(c1)C(=O)C(=O)c1c(C)coc1-2` : 5.44

Further cases:
Form field, pIC50 with U-937, item `Cc1cc2c(o1)-c1ccc(C(C)C)cc1C(=O)C2=O` : 5.78

Form field, pIC50 with U-937, item `COc1cccc2c1-c1oc(C)cc1C(=O)C2=O` : 5.49

* * *

Measured pIC50, listed per entry.
- Test system: HepG2
- assayRemarks: Antiproliferative activity against human HepG2 cells assessed as reduction in cell viability measured after 72 hrs by MTT assay
- Format: functional, cell-based
- measurementConditions: HepG2, 72 h
Please keep in mind that pIC50 is minus log10 of the molar concentration; only the number is needed.

Form field, pIC50 with HepG2, item `Cc1coc2c1C(=O)C(=O)c1c-2ccc2c1CCCC2(C)C` : 5.31

Form field, pIC50 with HepG2, item `Cc1cc2c(o1)-c1ccc(C(C)C)cc1C(=O)C2=O` : 5.62

Form field, pIC50 with HepG2, item `COc1ccc2c(c1)-c1occ(C)c1C(=O)C2=O` : 5.70

Kindly review the next compound as well.
Form field, pIC50 with HepG2, item `Cc1cc2c(o1)-c1ccc(O)cc1C(=O)C2=O` : 5.40

* * *

- Tested on: U-937
- assayRemarks: Antiproliferative activity against human U-937 cells assessed as reduction in cell viability measured after 72 hrs by MTT assay
- Type: functional, cell-based
- measurementConditions: U-937, 72 h
reportedMetric: pIC50
Please keep in mind that pIC50 is minus log10 of the molar concentration; only the number is needed.

The following compounds have reported results that may help.
Looking up `Cc1coc2c1C(=O)C(=O)c1cc(C(C)C)ccc1-2` , I found its pIC50 recorded as 5.66

Looking up `Cc1coc2c1C(=O)C(=O)c1ccccc1-2` , I found its pIC50 recorded as 5.92

Kindly review the next compound as well.
Looking up `Cc1cc2c(o1)-c1ccc(O)cc1C(=O)C2=O` , I found its pIC50 recorded as 5.45

* * *

- System: HepG2
- assayRemarks: Antiproliferative activity against human HepG2 cells assessed as reduction in cell viability measured after 72 hrs by MTT assay
- Assay type: functional, cell-based
- measurementConditions: HepG2, 72 h
Measured IC50, listed per entry.

The following compounds have reported results that may help.
Looking up `Cc1coc2c1C(=O)C(=O)c1cc(O)ccc1-2` , I found its IC50 recorded as > 5 µM

Looking up `Cc1coc2c1C(=O)C(=O)c1cccc(O)c1-2` , I found its IC50 recorded as > 5 µM

Further cases:
Looking up `COc1ccc2c(c1)C(=O)C(=O)c1c(C)coc1-2` , I found its IC50 recorded as > 5 µM

* * *

- Tested on: U-937
- assayRemarks: Antiproliferative activity against human U-937 cells assessed as reduction in cell viability measured after 72 hrs by MTT assay
- Format: functional, cell-based
- measurementConditions: U-937, 72 h
pIC50: −log10 of the molar value.
reportedMetric: pIC50

The following compounds have reported results that may help.
Form field, pIC50 with U-937, item `Cc1coc2c1C(=O)C(=O)c1cc(O)ccc1-2` : < 5.30

Form field, pIC50 with U-937, item `Cc1cc2c(o1)-c1c(O)cccc1C(=O)C2=O` : < 5.30

Further cases:
Form field, pIC50 with U-937, item `COc1cccc2c1-c1occ(C)c1C(=O)C2=O` : < 5.30
